tested on: MOLT-4 leukemia; test: NCI-60 one-dose screen, 48 h (100 = growth as untreated, 0 = no growth, -100 = all killed); conditions: 10 µM unless noted
The panel holds about 83,000 compounds, 20% with a hit somewhere; the sample as a whole holds those more often.
Use 60% as the dividing line for growth, with the line itself on the yes (1) side and lower values as no (0).

Test whether the compound `O=C(O)C(Cl)(Cl)C(F)(F)F` records growth of 60% or higher.
yes (1)

Also check `COc1cc(C=Nc2cccc(C(=O)O)c2)ccc1N(CCCl)CCCl`
yes (1)

Now try `COc1ccc(/C=C\c2cc(OC)c(OC)c(OC)c2)cc1OCC(=O)Nc1nc2ccc(C(F)(F)F)cc2s1` .
no (0)

Same lookup for `COC(=O)[C@@H](C)C[C@H](Cc1ccccc1)NC(=O)c1nc([C@@H](C[C@H](C(C)C)N(C)C(=O)[C@@H](NC(=O)[C@H]2C[C@H](O)CCN2C)C(C)C)OC(C)=O)sc1C(C)C` , please.
no (0)

Also check `COc1cc(C=Nc2cccc(Br)c2)ccc1N(CCCl)CCCl`
yes (1)

###

// reported growth for each item listed
tested on: MOLT-4 leukemia; experiment: NCI-60 one-dose screen, 48 h (100 = growth as untreated, 0 = no growth, -100 = all killed); settings: 10 µM unless noted
The panel holds about 83,000 compounds, 20% with a hit somewhere; the sample as a whole holds those more often.
Field format: number, assumed %, no unit text.

Use the examples below as a reference point.
Quick one: growth of CC(CC1CCCCC1)NCc1ccccc1 (stereo not drawn) ?
100

Next up: `Nc1ccc(-c2nc3cc(F)ccc3[se]2)cc1F`
63.5

Next record, please: CC12CCC=CC1CCC1C2CCC2(C)C(c3ccc(=O)oc3)CCC12O (stereo not drawn)
-16.7

Alright, here's another compound for you.
So what does the record say about growth for CC(=O)C(c1c(O)c2ccccc2oc1=O)c1cc(=O)oc2c1ccc1ccccc12 (stereo not drawn) ?
90.2

###

system: SR leukemia; assay: NCI-60 one-dose screen, 48 h (100 = growth as untreated, 0 = no growth, -100 = all killed); conditions: 10 µM unless noted
This is part of a sample that, as a whole, favours compounds with a hit. Of some 83,000 tested, about 20% had one in any assay.
Quick rule for you: growth under 20% gets yes (1), anything else gets no (0).

Worked examples, 5 compounds total:
Field: below-cutoff. Rule: recorded growth strictly less than 20%. Subject: `C#Cc1ccc2c(c1)C(c1ccccc1)=NCC(=O)N2C`
no (0)

Follow-up item: `COC(=O)[C@@H](C)C[C@H](Cc1ccccc1)NC(=O)c1csc([C@@H](C[C@H](C(C)C)N(C)C(=O)[C@@H](NC(=O)[C@H]2CCCCN2C)c2ccc(F)cc2)OC(C)=O)n1`
yes (1)

Same thing, different compound: OCCNC(Cc1ccccc1)c1ccc2c(c1)OCO2 (configuration not stated)
no (0)

What about `CC[C@H](C)[C@@H]([C@@H](CC(=O)N1CCC[C@H]1[C@H](OC)[C@@H](C)C(=O)N[C@H](C)[C@@H](O)c1ccccc1)OC)N(C)C(=O)[C@@H](NC(=O)[C@@H](NC)C(C)C)C(C)C` ?
yes (1)

Similarly, `CC[C@]12C=CCN3CC[C@@]4(c5ccc(OC)cc5N(C)[C@H]4[C@@](O)(C(=O)OC)[C@@H]1OC(=O)CCCC[P+](c1ccccc1)(c1ccccc1)c1ccccc1)[C@@H]32` ?
yes (1)

Moving on to the next compound.
growth strictly < 20% for this compound? `CC(=O)O[C@H]1CC[C@]2(C)[C@H]3CC[C@]4(C)[C@@H](OC(C)=O)CC[C@H]4[C@@H]3[C@@H](C)[C@]2(O)C1`
no (0)
